Hey, just so you know, these numbers are from paper PMC7667546.

Molecular target: butyrylcholinesterase (BChE) (Homo sapiens, UniProt P06276)
Construct: purchased Sigma-Aldrich (Steinheim, Germany)
Sequence (P06276 29-602): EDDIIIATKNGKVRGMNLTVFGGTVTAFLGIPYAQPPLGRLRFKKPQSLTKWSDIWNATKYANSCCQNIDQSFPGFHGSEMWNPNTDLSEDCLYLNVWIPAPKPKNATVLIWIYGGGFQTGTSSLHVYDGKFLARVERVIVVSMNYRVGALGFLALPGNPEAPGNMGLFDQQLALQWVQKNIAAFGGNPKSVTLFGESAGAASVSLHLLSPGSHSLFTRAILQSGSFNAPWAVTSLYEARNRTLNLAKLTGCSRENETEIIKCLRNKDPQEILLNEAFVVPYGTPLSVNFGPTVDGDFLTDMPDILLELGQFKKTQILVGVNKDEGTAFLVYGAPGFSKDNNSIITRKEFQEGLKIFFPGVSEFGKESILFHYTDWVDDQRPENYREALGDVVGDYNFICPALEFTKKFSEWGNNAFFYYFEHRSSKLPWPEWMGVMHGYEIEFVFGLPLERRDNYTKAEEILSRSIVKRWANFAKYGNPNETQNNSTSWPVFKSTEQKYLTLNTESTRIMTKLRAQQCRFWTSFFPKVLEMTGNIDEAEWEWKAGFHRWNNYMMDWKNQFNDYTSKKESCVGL
Assay: Butyrylcholinesterase inhibition in vitro
Format: biochemical
Conditions: 10µg/mL; mean ± S.D. of three measurements; N.A. = not active; read-out: Inhibition (%) BChE
From the text: Details of all biological activity and molecular modeling studies are given as supplementary material. The enzyme activities of the extracts were studied by observing urease, tyrosinase acetyl- and butyryl-cholinesterase inhibition activities ([22]-[25]). The ligands were then applied with partial atomic charges derived by ﬁtting Antechamber obtained by electronic structure calculation module in AMBER and assigned the AM1-BCC charges ([26]-[29]). […]
property_label: inhibition at 10 µg/mL

INSERT INTO measurements (mol, property_label, value_reported) VALUES
  ('O=C(/C=C/c1ccc(O)c(O)c1/C=C/c1ccc(O)c(O)c1)O[C@H](Cc1ccc(O)c(O)c1)C(=O)O', 'inhibition at 10 µg/mL', '27.5%'),
  ('O=C(/C=C/c1ccc(O)c2c1[C@H](C(=O)O[C@H](Cc1ccc(O)c(O)c1)C(=O)O)[C@@H](c1ccc(O)c(O)c1)O2)O[C@H](Cc1ccc(O)c(O)c1)C(=O)O', 'inhibition at 10 µg/mL', '49.8%'),
  ('CC(C)c1cc2c(c(O)c1O)[C@@]13CCCC(C)(C)[C@@H]1C[C@@H]2OC3=O', 'inhibition at 10 µg/mL', '58%'),
  ('COc1ccc(-c2cc(=O)c3c(O)c(OC)c(OC)cc3o2)cc1', 'inhibition at 10 µg/mL', '43.1%');

* * *

target: butyrylcholinesterase (BChE) (Homo sapiens, UniProt P06276); construct: purchased Sigma-Aldrich (Steinheim, Germany); assay: Butyrylcholinesterase inhibition in vitro; type: biochemical; settings: read-out: Inhibition (%) BChE
Where a name gives a salt, the structure may show the parent alone.
This listing pairs compounds with measured inhibition at 10 µg/mL.
property_label: inhibition at 10 µg/mL

INSERT INTO assay_data (compound, value_reported) VALUES
  ('Cc1coc2c1C(=O)C(=O)c1c-2ccc2c(C)cccc12', '33%'),
  ('O=C(O)C(O)Cc1ccc(O)c(O)c1 (centres unmarked) [Compound 11, Danshensu Salt]', '35.4%'),
  ('C[C@H]1COC2=C1C(=O)C(=O)c1c2ccc2c1CCCC2(C)C', '35.2%'),
  ('Cc1coc2c1C(=O)C(=O)c1c-2ccc2c1CCCC2(C)C', '66.3%'),
  ('CC(C)c1cc2c(c(O)c1O)[C@@]1(C(=O)O)CCCC(C)(C)[C@@H]1CC2', '58.5%'),
  ('O=C(/C=C/c1ccc(O)c(O)c1)O[C@H](Cc1ccc(O)c(O)c1)C(=O)O', '42.8%'),
  ('Cc1cccc2c3c(ccc12)C1=C(C(=O)C3=O)[C@@H](C)CO1 [Compound 6, Dihydrotanshinone I]', '87.2%'),
  ('COc1ccc2c3c1O[C@H]1C[C@@H](O)C=C[C@@]31CCN(C)C2 [Galanthamine, galanthamine hydrobromide, reference compound]', '67.5%');

* * *

molecular target: acetylcholinesterase (AChE) (Homo sapiens); construct: purchased Sigma-Aldrich (Steinheim, Germany); experiment: biochemical
Sequence (P22303 32-614, species assumed): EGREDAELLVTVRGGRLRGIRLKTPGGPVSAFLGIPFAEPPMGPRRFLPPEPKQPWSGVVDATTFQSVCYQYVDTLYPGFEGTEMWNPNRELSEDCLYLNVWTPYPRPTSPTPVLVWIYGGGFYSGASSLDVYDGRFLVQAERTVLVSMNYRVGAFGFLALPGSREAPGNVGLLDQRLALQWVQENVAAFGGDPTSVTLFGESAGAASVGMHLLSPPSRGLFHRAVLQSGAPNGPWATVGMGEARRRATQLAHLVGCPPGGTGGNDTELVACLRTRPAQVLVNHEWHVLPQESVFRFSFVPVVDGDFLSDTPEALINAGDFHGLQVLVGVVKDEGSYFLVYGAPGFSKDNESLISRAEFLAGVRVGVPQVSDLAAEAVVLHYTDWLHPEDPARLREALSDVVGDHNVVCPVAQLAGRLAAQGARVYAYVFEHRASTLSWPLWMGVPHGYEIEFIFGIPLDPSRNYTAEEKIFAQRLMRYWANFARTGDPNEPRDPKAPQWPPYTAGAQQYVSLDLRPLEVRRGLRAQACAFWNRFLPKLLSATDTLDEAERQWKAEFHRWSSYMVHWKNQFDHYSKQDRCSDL
pIC50: −log10 of the molar value.
property_label: pIC50

INSERT INTO assay_data (compound, assay_system, bound_operator, value_reported) VALUES
  ('C[C@H]1COC2=C1C(=O)C(=O)c1c2ccc2c1CCCC2(C)C', 'acetylcholinesterase (AChE) (Homo sapiens)', '<', 3.47),
  ('O=C(/C=C/c1ccc(O)c(O)c1/C=C/c1ccc(O)c(O)c1)O[C@H](Cc1ccc(O)c(O)c1)C(=O)O', 'acetylcholinesterase (AChE) (Homo sapiens)', '=', 4.33),
  ('O=C(/C=C/c1ccc(O)c2c1[C@H](C(=O)O[C@H](Cc1ccc(O)c(O)c1)C(=O)O)[C@@H](c1ccc(O)c(O)c1)O2)O[C@H](Cc1ccc(O)c(O)c1)C(=O)O', 'acetylcholinesterase (AChE) (Homo sapiens)', '<', 3.86),
  ('Cc1cccc2c3c(ccc12)C1=C(C(=O)C3=O)[C@@H](C)CO1 [Compound 6, Dihydrotanshinone I]', 'acetylcholinesterase (AChE) (Homo sapiens)', '=', 5.27),
  ('Cc1coc2c1C(=O)C(=O)c1c-2ccc2c(C)cccc12', 'acetylcholinesterase (AChE) (Homo sapiens)', '=', 3.86);
